Cited source: patent US20260184815A1

TARGET_OR_SYSTEM: pKal catalytic domain Mutant 4 (human) (UniProt P03952)
Sequence (P03952 391-638, change not shown): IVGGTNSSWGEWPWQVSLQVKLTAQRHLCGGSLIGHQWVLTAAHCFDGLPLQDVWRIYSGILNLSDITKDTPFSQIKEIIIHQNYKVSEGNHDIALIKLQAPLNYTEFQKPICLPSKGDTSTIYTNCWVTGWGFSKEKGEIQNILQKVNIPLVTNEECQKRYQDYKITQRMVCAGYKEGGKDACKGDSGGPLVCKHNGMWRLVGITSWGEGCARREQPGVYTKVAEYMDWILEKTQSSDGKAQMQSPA
METHOD: equilibrium Ki,app, enzyme inhibition with fluorogenic substrate, tight binding fit
Quick reference: pKi of the listed items.
# reply with the number alone; pKi is -log10 of concentration in mol/L

BINDER | pKi
M29-D09 (Fab, V domains shown) VH: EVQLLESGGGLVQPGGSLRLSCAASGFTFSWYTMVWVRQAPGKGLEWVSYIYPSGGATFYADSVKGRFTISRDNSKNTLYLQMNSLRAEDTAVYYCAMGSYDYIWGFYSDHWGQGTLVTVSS VL: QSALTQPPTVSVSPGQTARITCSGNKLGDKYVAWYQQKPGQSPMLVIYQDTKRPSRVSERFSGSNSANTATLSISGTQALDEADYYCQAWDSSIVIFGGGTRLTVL | 9.41
M145-D11 (Fab, V domains shown) VH: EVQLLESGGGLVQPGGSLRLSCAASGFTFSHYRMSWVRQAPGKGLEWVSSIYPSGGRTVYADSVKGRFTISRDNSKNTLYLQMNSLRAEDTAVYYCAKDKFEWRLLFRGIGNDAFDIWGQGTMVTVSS VL: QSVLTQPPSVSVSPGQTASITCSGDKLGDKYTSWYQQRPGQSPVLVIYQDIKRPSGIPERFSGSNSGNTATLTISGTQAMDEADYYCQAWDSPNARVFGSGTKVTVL | 9.68
DX-2922 (antibody, V domains shown) VH: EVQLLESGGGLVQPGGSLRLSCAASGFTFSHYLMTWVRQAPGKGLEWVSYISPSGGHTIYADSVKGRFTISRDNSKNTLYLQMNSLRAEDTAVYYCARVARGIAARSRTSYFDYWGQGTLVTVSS VL: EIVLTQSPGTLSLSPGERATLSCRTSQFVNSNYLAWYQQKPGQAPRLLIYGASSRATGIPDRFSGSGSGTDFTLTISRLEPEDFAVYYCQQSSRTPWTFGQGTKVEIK | 9.60
M06-D09 (antibody, V domains shown) VH: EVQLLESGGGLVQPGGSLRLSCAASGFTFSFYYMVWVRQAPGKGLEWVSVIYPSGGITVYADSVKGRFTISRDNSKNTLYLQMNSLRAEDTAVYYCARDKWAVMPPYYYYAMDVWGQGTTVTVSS VL: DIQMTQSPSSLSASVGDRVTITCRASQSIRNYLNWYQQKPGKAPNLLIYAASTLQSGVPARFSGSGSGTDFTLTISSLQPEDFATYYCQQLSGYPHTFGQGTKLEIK | 8.54

Asked: // query pKi value for entry X115-F02 (Fab, V domains shown) VH: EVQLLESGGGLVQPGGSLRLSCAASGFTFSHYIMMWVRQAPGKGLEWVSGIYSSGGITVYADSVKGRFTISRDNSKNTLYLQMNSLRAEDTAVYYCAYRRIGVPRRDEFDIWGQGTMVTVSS VL: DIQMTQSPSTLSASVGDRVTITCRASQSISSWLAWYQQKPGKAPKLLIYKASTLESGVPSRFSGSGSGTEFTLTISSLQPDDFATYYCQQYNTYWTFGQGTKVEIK
Given back: 10.00
